Biological target: rSARS2-B.1.1.7 S aa16-1211 2x aa mut., C-His (SARS-CoV-2, UniProt P0DTC2 16-1211)
Assay: flow cytometry, blocking of binding to hACE-2 cells
The label depends only on percent blocking: Y if it is at least 30%, N if it is smaller.

{"Binder": "1035716 (antibody, V domains shown) VH: EVLLQQSGPELVKPGASVKIPCKASGYTFTDYNMDWVKQSHGKSLEWIGDINPNNGGTIYNQKFKGKATLTVDKSSSTAYMELRSLTSEDTAVYYCAREGYGNYFDYWGQGTTLTVSS VL: DILLTQSPAILSVSPGERVSFSCRASQSIGTSIHWYQQRTNGSPRLLIKYASESISGIPSRFSGSGSGTDYTLSINSVESEDIADYYCQQSYSWPTTFGAGTKLELK", "Qualitative label": "Y"}
{"Binder": "1035419 (antibody, V domains shown) VH: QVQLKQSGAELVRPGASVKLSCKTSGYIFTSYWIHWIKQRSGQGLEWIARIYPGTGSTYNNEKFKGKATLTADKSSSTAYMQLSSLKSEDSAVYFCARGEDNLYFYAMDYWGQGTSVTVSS VL: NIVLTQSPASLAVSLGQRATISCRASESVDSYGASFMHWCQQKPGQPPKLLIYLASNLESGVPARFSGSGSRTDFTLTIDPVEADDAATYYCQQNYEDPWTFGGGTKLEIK", "Qualitative label": "N"}
{"Binder": "1035224 (antibody, V domains shown) VH: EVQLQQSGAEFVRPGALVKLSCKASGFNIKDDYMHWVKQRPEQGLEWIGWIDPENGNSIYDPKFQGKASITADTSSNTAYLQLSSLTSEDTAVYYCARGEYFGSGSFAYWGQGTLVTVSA VL: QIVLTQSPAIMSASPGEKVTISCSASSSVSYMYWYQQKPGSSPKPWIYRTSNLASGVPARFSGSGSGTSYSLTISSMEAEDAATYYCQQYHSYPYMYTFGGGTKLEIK", "Qualitative label": "Y"}
{"Binder": "1035240 (antibody, V domains shown) VH: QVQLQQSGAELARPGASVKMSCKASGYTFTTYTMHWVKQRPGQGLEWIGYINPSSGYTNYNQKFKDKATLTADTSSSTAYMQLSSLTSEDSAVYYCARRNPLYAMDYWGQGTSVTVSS VL: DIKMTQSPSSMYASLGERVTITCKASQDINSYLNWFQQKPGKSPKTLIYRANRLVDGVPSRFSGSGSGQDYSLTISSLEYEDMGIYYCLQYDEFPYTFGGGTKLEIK", "Qualitative label": "Y"}
{"Binder": "1035755 (antibody, V domains shown) VH: EVQLQQSGAELVRPGALVKLSCKASGFNIKDYYMHWVKQRPEQGLEWIGWIDPENGNSIYDPKFQGKASITADTSSNTAYLQLSSLTSEDTAVYYCATPSATSYFDYWGQGTTLTVSS VL: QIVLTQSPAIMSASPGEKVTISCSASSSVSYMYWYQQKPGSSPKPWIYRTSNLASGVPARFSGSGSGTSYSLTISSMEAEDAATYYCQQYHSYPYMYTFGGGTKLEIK", "Qualitative label": "N"}
{"Binder": "1035740 (antibody, V domains shown) VH: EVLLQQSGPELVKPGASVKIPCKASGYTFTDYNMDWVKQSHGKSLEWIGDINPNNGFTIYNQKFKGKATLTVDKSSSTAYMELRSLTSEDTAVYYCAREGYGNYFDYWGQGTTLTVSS VL: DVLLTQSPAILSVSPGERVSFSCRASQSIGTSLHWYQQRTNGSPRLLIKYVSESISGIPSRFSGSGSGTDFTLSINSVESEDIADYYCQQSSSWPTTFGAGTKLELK", "Qualitative label": "Y"}
